Assay: Tmax in BALBnu/CrlCrlj mouse at 0.1 to 1 mg/kg, po measured for 1 to 24 hrs
Type: ADME, organism-based
Details: in vivo, dose lower 0.1 mg/kg, time lower 1 hrs, dose upper 1 mg/kg, time upper 24 hrs
measurement label: Tmax (h)

smiles str: CS(=O)(=O)c1ccc(C(F)(F)F)cc1NC(=O)Nc1cnc(Oc2ccc(-c3cc(Cl)cnc3N)cc2)nc1
measurement label: Tmax
quantitative readout: 2

###

Experiment: Tmax in BALBnu/CrlCrlj mouse xenografted with human KM12 cell tumor at 0.06 to 0.6 mg/kg, po measured after 48 hrs
Assay type: ADME, organism-based
Settings: in vivo, dose 0.06-0.6 mg/kg

smiles str: CS(=O)(=O)c1ccc(C(F)(F)F)cc1NC(=O)Nc1cnc(Oc2ccc(-c3cc(Cl)cnc3N)cc2)nc1
quantity unit: h
Tmax: 7
